- procedure-details: Cytotoxicity against human PCO3 cells by sulforhodamine B assay
- Assay type: functional
property-name: TGI (µM)
# unit: µM | format: bare number

Ask | TGI lookup needed for CC1=CC[C@@H]([C@@](C)(O)CCCC(C)(C)NC(=S)N/N=C\c2ccc(C)cc2)CC1 , thanks.
Reply | 45.7

Ask | TGI lookup needed for CC1=CC[C@@H]([C@@](C)(O)CCCC(C)(C)NC(=S)N/N=C\c2ccc(Cl)cc2)CC1 , thanks.
Reply | 22.7

Ask | TGI lookup needed for COc1ccc(/C=N\NC(=S)NC(C)(C)CCC[C@](C)(O)[C@@H]2CC=C(C)CC2)cc1 , thanks.
Reply | 76

Ask | TGI lookup needed for CC1=CC[C@@H]([C@@](C)(O)CCCC(C)(C)NC(=S)N/N=C\c2ccc(O)cc2)CC1 , thanks.
Reply | 13.9

Ask | TGI lookup needed for COc1cccc2c1C(=O)c1c(O)c3c(c(O)c1C2=O)C[C@@](O)(C(=O)CO)C[C@@H]3O[C@H]1C[C@H](N)[C@H](O)[C@H](C)O1 , thanks.
Reply | 2.3
